- tgt: Matrix metalloproteinase-9 (Rattus norvegicus)
- Sequence (P50282 whole entry): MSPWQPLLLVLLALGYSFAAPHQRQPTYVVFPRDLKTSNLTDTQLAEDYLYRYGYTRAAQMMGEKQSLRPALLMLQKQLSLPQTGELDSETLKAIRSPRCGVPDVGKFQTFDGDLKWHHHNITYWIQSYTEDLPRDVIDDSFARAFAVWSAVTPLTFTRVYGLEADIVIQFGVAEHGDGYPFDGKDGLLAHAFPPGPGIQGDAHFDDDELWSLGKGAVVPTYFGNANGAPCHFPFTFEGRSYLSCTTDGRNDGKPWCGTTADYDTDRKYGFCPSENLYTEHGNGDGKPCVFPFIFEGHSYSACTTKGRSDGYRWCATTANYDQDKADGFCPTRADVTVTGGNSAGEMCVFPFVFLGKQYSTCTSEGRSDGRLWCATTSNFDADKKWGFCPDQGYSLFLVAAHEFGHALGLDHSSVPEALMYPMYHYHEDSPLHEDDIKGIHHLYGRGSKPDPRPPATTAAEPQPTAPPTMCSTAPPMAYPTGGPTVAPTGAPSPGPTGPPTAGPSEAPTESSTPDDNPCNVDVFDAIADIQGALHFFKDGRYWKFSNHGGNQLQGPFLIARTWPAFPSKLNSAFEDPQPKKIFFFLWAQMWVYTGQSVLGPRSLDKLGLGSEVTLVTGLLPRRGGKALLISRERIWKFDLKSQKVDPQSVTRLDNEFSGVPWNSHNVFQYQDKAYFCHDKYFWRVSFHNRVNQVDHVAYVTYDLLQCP
- assay_explanation: Compound was tested for its inhibitory activity against Matrix metalloprotease-9 in adjuvant arthritic rat model of rheumatoid arthritis
pIC50: −log10 of the molar value. Square brackets hold non-standard residues; d marks the D form. Peptide text beside a SMILES is read from it. * marks the point of attachment. Propionyl = CCC(=O)*; Mpa = O=C(O)CCS
Assign class by pIC50: not lower than 6 means y; lower than 6 means n.

Q: Textbook exercise: given the entry CNC(=O)[C@H](Cc1ccccc1)NC(=O)[C@H](C[S+](C)[O-])NC(=O)CS (some centres not stated) , state whether its pIC50 is greater than or equal to 6.
Ans: y

Q: Textbook exercise: given the entry CNC(=O)[C@H](Cc1ccccc1)NC(=O)[C@H](CC(C)C)NC(=O)CCS ([Mpa]-Leu-Phe-NHMe) , state whether its pIC50 is greater than or equal to 6.
Ans: n

Q: Textbook exercise: given the entry CNC(=O)[C@H](Cc1ccccc1)NC(=O)[C@@H](NC(=O)CS)C(C)O (some centres not stated) , state whether its pIC50 is greater than or equal to 6.
Ans: n

Q: Textbook exercise: given the entry CNC(=O)[C@H](Cc1ccccc1)NC(=O)[C@H](CC(C)C)NC(=O)CS , state whether its pIC50 is greater than or equal to 6.
Ans: y

Q: Textbook exercise: given the entry CNC(=O)[C@H](Cc1ccccc1)NC(=O)[C@H](CC(C)C)NC(=O)CSC , state whether its pIC50 is greater than or equal to 6.
Ans: n

Q: Textbook exercise: given the entry CNC(=O)[C@H](Cc1ccccc1)NC(=O)[C@H](CSC)NC(=O)CS , state whether its pIC50 is greater than or equal to 6.
Ans: y

Q: Textbook exercise: given the entry CCC(=O)N[C@@H](CC(C)C)C(=O)N[C@@H](Cc1ccccc1)C(=O)NC (Propionyl-Leu-Phe-NHMe) , state whether its pIC50 is greater than or equal to 6.
Ans: n

----------
- tgt: UniProt:P50282
- assay_explanation: Compound was tested for its inhibitory activity against Matrix metalloprotease-9 (MMP-9) in adjuvant arthritic rat model of rheumatoid arthritis
test_readout: pIC50
// pIC50: -log10(molar conc.)

Q: Would you kindly share the measured pIC50 for CNC(=O)[C@H](Cc1c[nH]c2ccccc12)NC(=O)[C@H](CSC)NC(=O)CS ?
Ans: 6.92

Q: Would you kindly share the measured pIC50 for CNC(=O)[C@H](Cc1cscn1)NC(=O)[C@H](CC(C)C)NC(=O)CS ?
Ans: 8.15

Q: Would you kindly share the measured pIC50 for CNC(=O)[C@H](Cc1c[nH]c2ccccc12)NC(=O)[C@H](CC(C)C)NC(=O)CS ?
Ans: 7.52

----------
- tgt: Neutrophil collagenase (Rattus norvegicus, UniProt O88766)
- Sequence (O88766 whole entry): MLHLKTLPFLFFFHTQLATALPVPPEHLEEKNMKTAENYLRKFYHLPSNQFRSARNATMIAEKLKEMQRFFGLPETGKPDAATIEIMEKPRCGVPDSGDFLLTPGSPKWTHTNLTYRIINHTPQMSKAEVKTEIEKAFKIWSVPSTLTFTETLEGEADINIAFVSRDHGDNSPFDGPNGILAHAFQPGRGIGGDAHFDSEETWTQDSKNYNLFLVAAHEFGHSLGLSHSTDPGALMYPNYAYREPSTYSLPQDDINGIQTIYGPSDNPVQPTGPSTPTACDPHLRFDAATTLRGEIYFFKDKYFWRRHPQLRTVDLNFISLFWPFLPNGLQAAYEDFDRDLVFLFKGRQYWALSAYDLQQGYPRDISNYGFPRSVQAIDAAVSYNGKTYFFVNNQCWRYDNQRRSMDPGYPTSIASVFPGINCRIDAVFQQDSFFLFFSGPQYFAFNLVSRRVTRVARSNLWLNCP
- assay_explanation: Compound was tested for its inhibitory activity against Matrix metalloprotease-8 (MMP-8) in adjuvant arthritic rat model of rheumatoid arthritis
Square brackets hold non-standard residues; d marks the D form. Peptide text beside a SMILES is read from it. Mpa = O=C(O)CCS
Kindly state IC50 for each of the entries shown.
Use nM as the unit, but write only the number.

Q: Would you kindly share the measured IC50 for CNC(=O)[C@H](Cc1ccccc1)NC(=O)[C@H](CC(C)C)NC(=O)CCS ([Mpa]-Leu-Phe-NHMe) ?
Ans: 5100

Q: Would you kindly share the measured IC50 for CNC(=O)[C@H](Cc1ccccc1)NC(=O)[C@H](CC(C)C)NC(=O)CS ?
Ans: 50

Q: Would you kindly share the measured IC50 for CNC(=O)[C@H](Cc1ccccc1)NC(=O)[C@H](CC(C)C)NC(=O)CSC ?
Ans: 2600

Q: Would you kindly share the measured IC50 for CNC(=O)[C@H](Cc1c[nH]c2ccccc12)NC(=O)[C@H](CSC)NC(=O)CS ?
Ans: 20
